# System: OVCAR-3
# assay_overview: Cytotoxicity against human OVCAR3 cells after 72 hrs by WST1 assay
# Type: functional, cell-based
# setup_conditions: OVCAR-3, 72 h
measurement_name: IC50 (µM)
Reply numerically in µM, unit not repeated.

{"structure": "COc1ccc(Cn2cnc3c4nc(=O)n(Cc5ccccc5)c-4ncnc32)cc1", "unit_of_measurement": "µM", "IC50": 5}
{"structure": "COc1ccc(Cn2cnc3c4nc(=O)n(Cc5cccc(OC)c5)c-4ncnc32)cc1", "unit_of_measurement": "µM", "IC50": 5.1}
{"structure": "COc1ccc(Cn2c3nc(-c4ccc([N+](=O)[O-])cc4)nc4c(ncn4Cc4ccc(OC)cc4)c-3nc2=O)cc1", "unit_of_measurement": "µM", "IC50": 5.2}
{"structure": "COc1ccc(Cn2cnc3c4nc(=O)n(Cc5ccc(F)cc5)c-4ncnc32)cc1", "unit_of_measurement": "µM", "IC50": 9}

API: the following record is the query input.
IC50 for OVCAR-3 with input "COc1ccc(Cn2c3ncnc4c(ncn4Cc4ccc(OC)cc4)c-3nc2=O)cc1" equals 14.5
